System: BT-549
Assay: NCI tumour cell line growth inhibition, 48 h
Activity calls are given as the source filed them. Cut-off read from the data, not from the text of the source: active = GI50 up to about 1.1 µM and inactive = higher.
quantity-measured: GI50

Recorded GI50, per entry:
O=C(O)c1ccc2c(c1)CC1(C2)Cc2ccccc2C1=O (stereo unspecified) | > 100 µM (inactive)
CCN(CC)CCSc1nc(-c2c[nH]c3nc(C)ccc3c2=O)n[nH]1 | > 100 µM (inactive)
CC(C)(C)C1(O)C=C(O)C(=O)N1NC(=O)c1ccccc1Nc1ccccc1 (stereo unspecified) | 28 µM (inactive)
COC(=O)c1cc(C#N)[nH]c1-c1ccc(C)s1 | 30.5 µM (inactive)
COC1(O)C(=O)c2ccccc2OC1(OC)c1ccccc1 (stereo unspecified) | > 100 µM (inactive)
O=S(=O)(O)c1cc(Cl)c(O)c2ncc(Cl)cc12 | 79.4 µM (inactive)

Given item O=[N+]([O-])c1cc(Br)cc2cc(Cl)cnc12 , the value recorded as its GI50 is 72.4 µM (inactive)

// field: GI50; key: CCN(CC)CCN(/C(=N/c1ccccc1)N1CCCCC1)c1ccccc1 ; value = 13.7 µM (inactive)

// GI50 value for CN(CCNC(=O)c1n[nH]c2c1ccc1ccccc12)CCNC(=O)c1n[nH]c2c1ccc1ccccc12 : 20.2 µM (inactive)

GI50 for COc1ccc2c(C)cc(N/N=C/c3ccc(C)s3)nc2c1 is 24.3 µM (inactive)

// GI50 value for O=C1C2CC=CCC2C(=O)N1n1c(Cc2ccccc2)n[nH]c1=O (stereo unspecified) : > 100 µM (inactive)
